MEASUREMENT NOTES: soluble on expression in E. coli; label from the status in PepcDB or PDB records
READOUT NAME: soluble on expression in E. coli

RESIDUE SEQUENCE	READOUT NAME	MEAS VALUE
SLIKNEHVKKCDTWPSGGEMVVKDLTVKYVDDGNAILENICFSISPGQRVGLLGRTGSGKSTLLSAFLRMLNIKGEIQIDGVSWNSMTLEEWRKAFGVITQKVFIFSGTFRQNLDPNGKWRDEEIWKVADQVGLKSVIEQFPGQLNFTLVDGGYVLSHGHKQLMCLARSVLSKAKIILLDEPSANLDPITYQVIRRVLRQAFAGCTVVLCEARIEAMLDCDRFLVIEQGNVWQYESLQALLSEKSDFQRALSSSE	soluble on expression in E. coli	soluble
GSHMASPTPAPSQSPIRRDAFSIIEAEEYNSTNSSTLQVIGTPNNGRGIGYIENGNTVTYSNIDFGSGATGFSATVATEVNTSIQIRSDSPTGTLLGTLYVSSTGSWNTYNTVSTNISKITGVHDIVLVFSGPVNVDNFIFSRSS	soluble on expression in E. coli	soluble
MSLENTDINISALLNVDIDKILKQTIKEKIEKLMEIELNAYLEENPGIKNGKYKRDLKTKYGEIKQLNVPRDRDSNFHTQVIEPYNRSIGMEDLIVSMYSNGISTRRIAGIMEDILGNKYSKSTISRITDLTIEEVYKFINRPLDKRYIAVFLDGLFFYLRRGNVDKEPVIFALGIKETGEYEVLGFYLTVKESHNAYKEVLEDLYNRGLKEPLLIVADGIKNLDEEVMEIYPRSEFQLCTIHYARGLKSNVREKDIDEITIDANKMFKCDNKEEAIIRFNDFKYKWKSKYPKVIYNTEKNLGKLLRFYNYPVNIRKSLKSTNAIERFNGEVRRRVKTISSFPDEDSAMKVFYYKSIEYNSKHAFRKMNGYYKCKDEIKEMFQKREGHHHHHH	soluble on expression in E. coli	not soluble
MGSDKIHHHHHHMTLDPDAKLPETEEGTVVYNTDPLIIRSHYEIDYIHSYAQDSEFFRALGRKKLMGSKCKKCGYVYATPRSHCMMCGSETEWYELPLKGRVHTYTTCYFSGEEFLNETPFNLILVEFDGVNSLFMSRLIGAETKDIYIGMPVKAKFRRNLKMNVTDVYFVPDVEK	soluble on expression in E. coli	not soluble
MGSDKIHHHHHHMEVVGRSRAKAIIETHLNDSLVYFSDHVRILKCNPYCTGVTYLKEHGVYQWIFQVNDPRENPITAVFFVTQNEEHLDSSRTVPAGPVSEEESFPDSAVSGRCIQWVNAPQVPDVPLKEKNTFVGQANTRICLYPLEDRRTEVHFETDITLDFELSFPLNLMPEGILKFMTEAVMSKIMQQATESMLCQVQSDLCCCTTAELDASGGKV	soluble on expression in E. coli	not soluble
MGSDKIHHHHHHMTLKDIAEMAGVSTMTVSNVINGKTSRVSQKTRDKINSIIEEYNYVPNMNARSLSNNSSHIIGVVTFLEEKEYASGYNYFENPYVSTMIGTIETELHKNGYFTMLQSVSRSSDILSLVKNWNVDGMILVFPTSAQNLEKLMDAANCPIATFDSNYSHPNLINVISDDEKGLYLSTKYMINHGHTEIAFVADYEGNIVLTKRFNGYKKALEDSHIPFRPEYIFSYPPSYEGGIEAGRAIAGSKSPITAVVTTADICAIGIMEGARLGGYRVPIDLSVIGYDNLNLCQYTVPKLTSVSQNVPKKARLATELLLKKIHDNESDSNLGEIIDVEIVDRQSVISLY	soluble on expression in E. coli	not soluble
MGNFYSLGKKEPVIRLLQITDCHLFSSESECLLGINTTETFQAVIEHIHQTDFAYDAVLATGDLIQDHNPEAYHRFAEMAKQFVKPLFWLEGNHDKQPQMSLYLGKHPHIQPEKQLLAGEKWQILLLNSQVAGAPSGYLSAGQLAWLNSKLAKHLDRYALVVLHHNILPTNSAWLDQHCLKNSEQLAKVLKSYRNVKAILHGHIHQEVDRVWQGYRVLATPSTCIQFKPNCRDFTLDMLPQGWREISLLEDGSIETTVKRLASNQFLPDFQSKGY	soluble on expression in E. coli	not soluble
MGEVQREKVAVIIGPTAVGKTKLSIDLAKALNGEIISGDSMQIYRTMDIGTAKVTKAEMDGIPHYMIDIKNPEDSFSVAEFQERVRKHIREITERGKLPIIVGGTGLYIQSVLFDYQFTDDAGDVIYREQREKLALERGVEYVHEKLQEVDPESAERIHANNVRRVIRALEIFHTTGEKMSEQIEKQEKELLYDVSLIGLTMDREMLYDRINLRVDLMMEQGLLEEVEGLYNRGIRDCQSIQAIGYKEIYDYFENRASLEDAVSQLKTNSRRYAKRQLTWFRNKMDVTWFDVTDGEKTSEILRYIEGKLQVKSNNSKLEHHHHHH	soluble on expression in E. coli	soluble
MGSDKIHHHHHHMENIVELINVTKTFKDFSINKMDLQVKKGFVTGFIGANGAGKSTTIKMMMNLLKPDDGEVKLFGMDYTTHEKAIKERIGFVYDGNVFFEGLNLKDIKHIVGPAYKRWDDTLFYQYVDKFELPLNKAIKTFSKGMQMKASLAIALSHHAELIIMDEPTAGLDPIFRRELLDILQELMIDNDRTIFFSTHITTDLDRIADYIAFMQGGNLVFNQSIHDIDENYALVKGGLDLLDKDTEKAFVHVRRASTGFEALTNNLSAVKNIFGDTVIIERATLEDIMYYMKGGVHYV	soluble on expression in E. coli	not soluble
MRFSREALLELEASRLAPYAQKARDTRGRAHPEPESLYRTPYQKDRDRILHTTAFRRLEYKTQVLPGWAGDYYRTRLTHTLEVAQVSRSIARALGLNEDLTEAIALSHDLGHPPFGHTGEHVLNALMQDHGGFEHNAQALRILTHLEVRYPGFRGLNLTYEVLEGIATHEAAYSPGFKPLYEGQGTLEAQVVDLSDAIAYAAHDLDDGLRAGLLHPEELKEVELLQALALEEGLDLLRLPELDRRVLVRQLLGYFITAAIEATHRRVEEAGVQSAEAVRRHPSRLAALGEEAEKALKALKAFLMERFYRHPEVLRERRKAEAVLEGLFAAYTRYPELLPREVQAKIPEEGLERAVCDYIAGMTDRFALEAYRRLSP	soluble on expression in E. coli	soluble
